Hello, the source for this data is ChEMBL document CHEMBL2034819, in case you need it.

Tested on: SW1573
assayProtocol: Growth inhibition of human SW1573 cells by SRB assay
Assay type: functional
Mark y only for GI50 values smaller than 0.5 µM; exact matches and larger values are n.

INPUT: Does the reported GI50 of the following compound sit strictly below 0.5 µM? COc1ccc2c(c1)C(=O)C1=C(CCC(C)(C)O1)C2=O
OUTPUT: n

INPUT: is_below(GI50, 0.5 µM) for CC1(C)CCC2=C(O1)c1cccc(O)c1C(=O)C2=O ?
OUTPUT: y

INPUT: Report whether reported GI50 is lower than 0.5 µM (strictly) for COc1cccc2c1C(=O)C(CC=C(C)C)=C(O)C2=O
OUTPUT: n

INPUT: Confirm or reject: GI50 of CC1(C)CCC2=C(O1)c1ccccc1C(=O)C2=O lies strictly below 0.5 µM
OUTPUT: n

INPUT: Lab note: confirm whether the reported GI50 for this compound is below 0.5 µM, equality not counting. compound: COc1cccc2c1C(=O)C(=O)C1=C2OC(C)(C)CC1
OUTPUT: n

INPUT: Hello, I'm reviewing records and need to know if GI50 of COc1ccc2c(c1)C(=O)C(=O)C1=C2OC(C)(C)CC1 is below 0.5 µM. Could you check?
OUTPUT: y

INPUT: Please let me know if COc1cccc2c1C(=O)C1=C(OC(C)(C)CC1)C2=O shows GI50 below 0.5 µM.
OUTPUT: n

INPUT: For CC1(C)CCC2=C(O1)c1cccc(OC(=O)C(C)(C)C)c1C(=O)C2=O , is the recorded GI50 below the cut-off of 0.5 µM?
OUTPUT: y

INPUT: Report whether reported GI50 is lower than 0.5 µM (strictly) for CC1(C)CCC2=C(O1)C(=O)c1c(O)cccc1C2=O
OUTPUT: n

INPUT: Lab note: confirm whether the reported GI50 for this compound is below 0.5 µM, equality not counting. compound: COc1ccc2c(c1)C(=O)C(O)=C(CC=C(C)C)C2=O
OUTPUT: n

INPUT: Hi there! Is GI50 for CC1(C)CCC2=C(O1)c1ccc(O)cc1C(=O)C2=O below 0.5 µM, do you know?
OUTPUT: n

INPUT: Take the compound CC1(C)CCC2=C(O1)c1c(O)cccc1C(=O)C2=O and say whether its GI50 is less than 0.5 µM.
OUTPUT: y

INPUT: I wonder whether COc1cccc2c1C1=C(CCC(C)(C)O1)C(=O)C2=O has GI50 below 0.5 µM. Can you tell?
OUTPUT: y

* * *

System: HBL-100
assayProtocol: Growth inhibition of human HBL100 cells by SRB assay
Assay type: functional
assayMetric: GI50 (µM)
Write the value in µM as a bare number.

Recorded GI50 for COc1ccc2c(c1)C(=O)C(O)=C(CC=C(C)C)C2=O on HBL-100 was 19

With HBL-100 as the test system, COc1cccc2c1C1=C(CCC(C)(C)O1)C(=O)C2=O showed GI50 of 0.69

The recorded GI50 with HBL-100 for CC1(C)CCC2=C(O1)C(=O)c1c(O)cccc1C2=O was 3.4

The recorded GI50 with HBL-100 for CC1(C)CCC2=C(O1)c1ccccc1C(=O)C2=O was 0.38

Entry CC1(C)CCC2=C(O1)c1ccc(O)cc1C(=O)C2=O : GI50 on HBL-100 = 2.3

CC1(C)CCC2=C(O1)c1cccc(OC(=O)C(C)(C)C)c1C(=O)C2=O on HBL-100 gives GI50 = 0.18

Measured GI50 for this entry CC1(C)CCC2=C(O1)c1c(O)cccc1C(=O)C2=O on HBL-100: 0.62

Simply: COc1cccc2c1C(=O)C(=O)C1=C2OC(C)(C)CC1 , HBL-100, GI50 = 2.7

HBL-100 GI50 of COc1ccc2c(c1)C(=O)C1=C(CCC(C)(C)O1)C2=O is 28

So the reported GI50 for COc1cccc2c1C(=O)C1=C(OC(C)(C)CC1)C2=O , on HBL-100, turned out to be 28

Tested on HBL-100, the item COc1ccc2c(c1)C(=O)C(=O)C1=C2OC(C)(C)CC1 showed GI50 equal to 0.41

Value (GI50, HBL-100) for record COc1cccc2c1C(=O)C(CC=C(C)C)=C(O)C2=O = 22

// assay HBL-100, entry CC1(C)CCC2=C(O1)c1cccc(O)c1C(=O)C2=O , GI50 value = 0.036
